Items are presented alongside their recorded area under concentration-response curve.
Test system: CU-ACC1
Test: area under concentration-response curve (viability) (AUC (a.u.)); higher = less active
Details: 48 h
assay_metric: area under concentration-response curve

| item_smiles | numeric_result |
| --- | --- |
| CC(C)NC(=O)N1CC[C@@H](C1)NC/2=N/C3=C(C=CC(=C3)F)N(CC(F)F)C4=C2C=C(Cl)C=C4 | 580 |
| CN(c1ncccc1CNc1nc(Nc2ccc3c(c2)CC(=O)N3)ncc1C(F)(F)F)[S+](C)(=O)[O-] | 404 |
| OC1=CC=C(C=C1)\C2=C\OC3=C(C(=CC(=C3)O)O)C2=O | 435 |
| Cc1nc(Nc2ncc(C(=O)Nc3c(C)cccc3Cl)s2)cc(N2CCN(CCO)CC2)n1 | 448 |
